- Tested on: CEM-SS
- Measurement Protocol: Concentration inhibiting HIV-1 induced cytopathic effects in human T-lymphoblastic cells(CEM-SS) and essentially halted HIV-1 replication.
- Type: functional, cell-based
# pIC50 listing for each entry below
Note on units: pIC50 is unitless, being -log10 of a concentration expressed in mol/L.

Compound	pIC50
CCCc1cc(=O)oc2c3c(c4c(c12)OC(C)(C)C=C4)O[C@H](C)[C@H](C)[C@@H]3O [CALANOLIDE C]	4.52
CCCc1cc(=O)oc2c3c(c4c(c12)OC(C)(C)C=C4)O[C@H](C)[C@H](C)C3=O	4.57
CCCc1cc(=O)oc2c3c(c4c(c12)OC(C)(C)C=C4)O[C@H](C)[C@@H](C)[C@H]3O [(+)-CALANOLIDE B]	4.82

Please examine the following record next.
**Query** Recall the reported pIC50 of CCCC1CC(=O)Oc2c(C(=O)C(C)C(C)O)c(O)c3c(c21)OC(C)(C)C=C3 (centres undefined) [CALANOLIDE E2] on CEM-SS and write it down.
**Result** 4.60
